Target: Aβ42 (Homo sapiens, UniProt P05067)
Sequence (P05067 672-713): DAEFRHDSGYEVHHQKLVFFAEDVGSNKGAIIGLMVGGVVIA
Assay: Th-T (thioflavin-T) assay of Aβ42 aggregation
Assay type: biochemical
Details: time course, reading M63
PROPERTY: Th-T fluorescence, mean of three wells
Provide a numeric answer; units are not to be included.

Q: // lookup Th-T fluorescence, mean of three wells | system=Aβ42 (Homo sapiens, UniProt P05067) | key= C=C1CCC2C(C)(CC(=O)C=C(C)C)C(O)CCC2(C)C1Cc1c(OC)oc(C)c(C)c1=O (stereo not drawn)
Result: 3.7203

Q: Moving on to C=C1CCC2C(C)(CCC=C(C)C)C(=O)CCC2(C)C1Cc1c(O)c(C)c(C)oc1=O (stereo not drawn)
Result: 2.25

Q: Moving on to CC(C)=CCC/C(C)=C/CC/C(C)=C/CC/C(C)=C/Cc1c(O)c(C)c(C)oc1=O
Result: 2.935

Q: Moving on to C=C1CC[C@H]2[C@]3(C)C[C@@H](C=C(C)C)O[C@H]3CC[C@]2(C)[C@@H]1Cc1c(O)c(C)c(C)oc1=O
Result: 2.7

Q: Moving on to C=C1CCC2C(C)(CC(=O)C=C(C)C)C(O)CCC2(C)C1Cc1c(O)c(C)c(C)oc1=O (stereo not drawn)
Result: 3.6015

Q: Moving on to C=C1CCC2C(C)(CC(=O)C=C(C)C)C(O)CCC2(C)C1Cc1c(OC)oc(CO)c(C)c1=O (stereo not drawn)
Result: 3.645

Q: Moving on to C=C1CC[C@@H]2[C@](C)(CC[C@H]3O[C@H](C=C(C)C)C[C@@]23C)[C@@H]1Cc1c(O)c(C)c(C)oc1=O
Result: 3.121

Q: Moving on to C=C1CC[C@H]2[C@]3(C)C[C@@H](C=C(C)C)O[C@H]3CC[C@]2(C)[C@@H]1Cc1c(OC)oc(CO)c(C)c1=O
Result: 3.655

Q: Moving on to C=C1CC[C@H]2[C@]3(C)C[C@H](C=C(C)C)O[C@H]3CC[C@]2(C)[C@@H]1Cc1c(OC)oc(CO)c(C)c1=O
Result: 3.951

Q: Moving on to C=C1CC[C@H]2[C@]3(C)C[C@H](C=C(C)C)O[C@H]3CC[C@]2(C)[C@@H]1Cc1c(OC)oc(C)c(C)c1=O
Result: 4.112

Q: Moving on to C=C1CCC2C3(C)CC(C=C(C)C)OC3CCC2(C)C1Cc1c(OC)oc(C)c(C)c1=O (stereo not drawn)
Result: 4.022

Q: Moving on to C=C1CC[C@H]2[C@]3(C)C[C@H](C=C(C)C)O[C@H]3CC[C@]2(C)[C@@H]1Cc1c(O)c(C)c(C)oc1=O
Result: 3.122

Values from paper PMC7156458
